Target: human transferrin receptor (hTfR) (Homo sapiens, UniProt P02786 89-760)
Sequence (P02786 89-760): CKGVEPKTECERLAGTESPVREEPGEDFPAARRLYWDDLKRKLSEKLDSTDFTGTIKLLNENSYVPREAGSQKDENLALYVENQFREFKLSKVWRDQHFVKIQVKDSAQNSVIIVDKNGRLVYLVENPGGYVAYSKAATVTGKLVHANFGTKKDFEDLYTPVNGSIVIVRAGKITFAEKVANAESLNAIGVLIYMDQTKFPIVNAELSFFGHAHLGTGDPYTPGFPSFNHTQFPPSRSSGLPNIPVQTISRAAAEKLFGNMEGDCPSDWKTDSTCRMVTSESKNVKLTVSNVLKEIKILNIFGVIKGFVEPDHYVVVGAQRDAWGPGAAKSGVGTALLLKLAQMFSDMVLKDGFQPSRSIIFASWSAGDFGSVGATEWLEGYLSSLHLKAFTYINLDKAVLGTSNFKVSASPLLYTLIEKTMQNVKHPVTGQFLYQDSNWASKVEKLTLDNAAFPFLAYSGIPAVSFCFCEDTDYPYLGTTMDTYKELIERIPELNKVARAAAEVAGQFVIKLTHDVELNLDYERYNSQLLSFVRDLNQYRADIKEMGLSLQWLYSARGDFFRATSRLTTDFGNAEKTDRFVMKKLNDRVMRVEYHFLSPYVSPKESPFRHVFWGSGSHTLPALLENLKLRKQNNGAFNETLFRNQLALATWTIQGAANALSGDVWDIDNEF
Assay: fluorescence anisotropy

Binder: GCGTGTGCACACGGTCACTTAGTATCGCTACGTTCTTTGGTTCCGTTCGG (structured_DNA, 5' amino C6 linker) [GS24 (equilibrium mixture A-1F:A-2F 20:80)]
Kd (µM): 1

Recorded values, source paper PMC3912326.
